- Assay System: T1, Human BCMA (human, UniProt Q02223 1-54, limits assumed)
- T1 construct: Soluble analyte in SPR; construct not described; also called huBCMA; B-cell maturation antigen
- T1 sequence (looked up): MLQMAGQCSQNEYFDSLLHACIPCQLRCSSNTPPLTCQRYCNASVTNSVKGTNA
- Protocol: SPR, IgG immobilised, 37 C
Outcome Measure: kon (M⁻¹ s⁻¹)
One number for each entry, in M⁻¹ s⁻¹.

The recorded kon for L3.PY/L1.FF/H2.LT (antibody, V domains shown, IgG) VH: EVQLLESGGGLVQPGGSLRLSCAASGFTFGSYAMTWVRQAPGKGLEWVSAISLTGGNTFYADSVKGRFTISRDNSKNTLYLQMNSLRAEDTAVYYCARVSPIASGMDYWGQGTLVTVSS VL: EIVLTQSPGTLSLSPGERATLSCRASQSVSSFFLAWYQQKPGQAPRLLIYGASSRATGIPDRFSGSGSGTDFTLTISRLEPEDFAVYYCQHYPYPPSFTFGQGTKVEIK is 3.3e+06

The recorded kon for L3.PY/L1.FF/H2.HA (antibody, V domains shown, IgG) VH: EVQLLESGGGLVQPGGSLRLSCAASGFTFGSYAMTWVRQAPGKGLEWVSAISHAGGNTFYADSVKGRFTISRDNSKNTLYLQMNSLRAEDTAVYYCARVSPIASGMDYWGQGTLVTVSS VL: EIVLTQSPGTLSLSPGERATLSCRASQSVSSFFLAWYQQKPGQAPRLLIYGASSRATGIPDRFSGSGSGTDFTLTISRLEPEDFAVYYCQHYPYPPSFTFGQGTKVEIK is 3.49e+06

The recorded kon for L3.PY/H3.AQ (antibody, V domains shown, IgG) VH: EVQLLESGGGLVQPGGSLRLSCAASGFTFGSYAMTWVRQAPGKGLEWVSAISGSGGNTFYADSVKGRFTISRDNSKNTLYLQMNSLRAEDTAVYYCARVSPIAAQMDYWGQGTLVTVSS VL: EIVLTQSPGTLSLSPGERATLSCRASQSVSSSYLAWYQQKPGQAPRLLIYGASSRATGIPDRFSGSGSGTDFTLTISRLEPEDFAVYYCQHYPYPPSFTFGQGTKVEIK is 3.08e+06

The recorded kon for L3.PY/L1.FF/H3.AQ (antibody, V domains shown, IgG) VH: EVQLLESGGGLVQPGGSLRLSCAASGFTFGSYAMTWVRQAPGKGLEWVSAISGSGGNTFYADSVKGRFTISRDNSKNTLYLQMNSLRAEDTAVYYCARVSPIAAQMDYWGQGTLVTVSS VL: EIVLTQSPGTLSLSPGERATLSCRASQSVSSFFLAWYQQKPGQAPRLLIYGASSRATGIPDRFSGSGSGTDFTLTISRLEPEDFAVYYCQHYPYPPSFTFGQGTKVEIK is 3.32e+06

Next:
The recorded kon for L3.PY/L1.AH/H2.DY (antibody, V domains shown, IgG) VH: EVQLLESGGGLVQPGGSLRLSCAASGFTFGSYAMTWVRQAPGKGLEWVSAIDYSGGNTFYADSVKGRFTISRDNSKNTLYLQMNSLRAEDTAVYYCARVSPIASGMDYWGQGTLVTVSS VL: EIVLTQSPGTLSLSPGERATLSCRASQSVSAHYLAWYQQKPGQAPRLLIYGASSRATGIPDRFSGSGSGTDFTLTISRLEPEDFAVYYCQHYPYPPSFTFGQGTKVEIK is 3.05e+06
